# key: entry, value: Kd
Target: DLG2 SH3 domain (aa 536-606) (Homo sapiens, UniProt Q15700)
Construct: 536-606; GST (N); made in house; host or cells: Escherichia coli CodonPlus, Rosetta, BL21(DE3)
Sequence (Q15700 536-606): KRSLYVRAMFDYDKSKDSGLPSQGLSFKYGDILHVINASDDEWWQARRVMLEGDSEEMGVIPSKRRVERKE
Assay: Fluorescence polarization SH3 domain-PRP binding
Conditions: FP, 0.2 µM fluorescein-labeled peptide, SH3 domain 0-200 µM, Tris/HCl pH 7.5, 25 °C, quadratic fit
Peptide text beside a SMILES is read from it.

CC(C)[C@H](N)C(=O)N1CCC[C@H]1C(=O)N[C@H](C(=O)N1CCC[C@H]1C(=O)N1CCC[C@H]1C(=O)N1CCC[C@H]1C(=O)N[C@H](C(=O)N1CCC[C@H]1C(=O)N1CCC[C@H]1C(=O)N[C@@H](CCCNC(=N)N)C(=O)N[C@@H](CCCNC(=N)N)C(=O)N[C@@H](CCCNC(=N)N)C(=O)O)C(C)C)C(C)C [RP1, reference compound] : > 200 µM

In the following, a different molecule is considered.
Retrieve Kd measured for CC(C)C[C@H](NC(=O)[C@@H]1CCCN1C(=O)[C@@H]1CCCN1C(=O)[C@H](CO)NC(=O)[C@@H]1CCCN1C(=O)[C@H](CC(C)C)NC(=O)[C@H](Cc1c[nH]cn1)NC(=O)[C@@H](N)CCCNC(=N)N)C(=O)N[C@H](C(=O)N[C@@H](CCC(N)=O)C(=O)O)[C@@H](C)O [Peptide P8] (H-RHLPSPPLTQ-OH; N-terminus and C-terminus assumed) and print it. > 200 µM
